Origin of the recorded values: patent US20180319855A1

Experiment: Ca2+ sensitivity curves of reconstituted photoproteins (L/Lmax vs free Ca2+)
Format: biochemical
Details: CLZ-f; L/Lmax compared to Aeq-wt
Method: For in vitro reconstitution, the purified and concentrated samples of apoaequorin and redquorin mutant proteins were buffer-exchanged to 50 mM Tris-HCl (pH 7.5), 150 mM NaCl, 10 mM EGTA, 5 mM ß-mercaptoethanol, supplemented with 5 μM CLZ-f or CLZ-native and incubated overnight at 4° C., in the dark. […]
Simple rule here: Relative intensity at pCa 6.5 less than 4 is yes, otherwise no.

Solved entries (count: 3):
Aeq-wt: wild-type aequorin: apoaequorin of Aequorea victoria (SEQ ID NO:1) reconstituted with coelenterazine (protein, listed as Aequorea aequorea, reconstituted with coelenterazine; SITE (1)..(189) wild-type aequorin) SKLTSDFDNPRWIGRHKHMFNFLDVNHNGKISLDEMVYKASDIVINNLGATPEQAKRHKDAVEAFFGGAGMKYGVETDWPAYIEGWKKLATDELEKYAKNEPTLIRIWGDALFDIVDKDQNGAITLDEWKAYTKAAGIIQSSEDCEETFRVCDIDESGQLDVDEMTRQHLGFWYTMDPACEKLYGGAVP; yes
QD + AD: apoaequorin double mutant Q159D + A123D (SEQ ID NO:15) (protein, mutant aequorin) SKLTSDFDNPRWIGRHKHMFNFLDVNHNGKISLDEMVYKASDIVINNLGATPEQAKRHKDAVEAFFGGAGMKYGVETDWPAYIEGWKKLATDELEKYAKNEPTLIRIWGDALFDIVDKDQNGDITLDEWKAYTKAAGIIQSSEDCEETFRVCDIDESGDLDVDEMTRQHLGFWYTMDPACEKLYGGAVP; no
S157D: apoaequorin mutant, serine 157 replaced by aspartic acid (SEQ ID NO:12) (protein, mutant aequorin) SKLTSDFDNPRWIGRHKHMFNFLDVNHNGKISLDEMVYKASDIVINNLGATPEQAKRHKDAVEAFFGGAGMKYGVETDWPAYIEGWKKLATDELEKYAKNEPTLIRIWGDALFDIVDKDQNGAITLDEWKAYTKAAGIIQSSEDCEETFRVCDIDEDGQLDVDEMTRQHLGFWYTMDPACEKLYGGAVP; no

# check: Relative intensity at pCa 6.5 < 4 for A123D: apoaequorin mutant, alanine 123 replaced by aspartic acid (SEQ ID NO:10) (protein, mutant aequorin) SKLTSDFDNPRWIGRHKHMFNFLDVNHNGKISLDEMVYKASDIVINNLGATPEQAKRHKDAVEAFFGGAGMKYGVETDWPAYIEGWKKLATDELEKYAKNEPTLIRIWGDALFDIVDKDQNGDITLDEWKAYTKAAGIIQSSEDCEETFRVCDIDESGQLDVDEMTRQHLGFWYTMDPACEKLYGGAVP
yes

Now the same for QT + ND: apoaequorin double mutant Q159T + N121D (SEQ ID NO:14) (protein, mutant aequorin) SKLTSDFDNPRWIGRHKHMFNFLDVNHNGKISLDEMVYKASDIVINNLGATPEQAKRHKDAVEAFFGGAGMKYGVETDWPAYIEGWKKLATDELEKYAKNEPTLIRIWGDALFDIVDKDQDGAITLDEWKAYTKAAGIIQSSEDCEETFRVCDIDESGTLDVDEMTRQHLGFWYTMDPACEKLYGGAVP
no
